test: yeast display, Sf9 membrane polyspecificity reagent, FACS + sequencing; frameworks hold sequencing errors
observed.property: polyreactivity (PSR sort gate)

INSERT INTO measurements (chain, recorded_value) VALUES
  ('QVQLVESGGGLVQAGGSLRLSCAASGRTFPRYVMGWNRQAPGKERELVAAISSSGGSTYYADSVKGRFTISRDNAKNTVYLQMNSLKPEDTAVYYCAAPSGGSKRYYYWGQGTKVTVSS', 'high polyreactivity'),
  ('QVQLVESGGVLVQAGGSLRLSCADSGSIFILYAMGWYRHAPGKESEFVAAITYRGGSTKYADSVKGRFTISRDNAKNTVYLQMNRLKPEDTAVYYCAAGGYWRSPCGSVSRYGYWGQGTQVTVSS', 'high polyreactivity'),
  ('QVQLVESGGVLVQAGGSLRLSCAASGRTLFHYAMGWDRQAPGKERELVAAIRNSDGSTYYADSVKGRFTISRDNAKNTVYLQMNSLKPEDTAVYYCAAKYKYRTNNYWGQGTQVTVSS', 'high polyreactivity');

* * *

test: yeast display, Sf9 membrane polyspecificity reagent, FACS + sequencing; frameworks hold sequencing errors
observed.property: polyreactivity (PSR sort gate)

INSERT INTO measurements (chain, recorded_value) VALUES
  ('QVQLVESGGGLVQAGGSLRLSCAASGFIFYYYAMGWYRQAPGKERELVAGITATGGSTYYEDSVKGRFTISRDNAKNTVYLQMNSLKPEDTAVYYCAAEHGRRATYTWWVIYDYWGQGTQVTVSS', 'low polyreactivity'),
  ('QVQLVESGGGLVQAGGSLRLSCAASGSTFRYYVMGWYRQAPGKERELVAAISRTGGRTYYADSVKGRFTISRDNAKNTVYLQMNSLKPEDTAVYYCAARNVTTKRYYYWGQGTQVTVSS', 'high polyreactivity'),
  ('QVQLVESGGGLVQAGGSLRLICAASGRTLDYYAMGWYRQAPGKERELVGAISQSDDSTYYADSVKGRFTISRDNSKNTVYLQMNILKPEDTAVNYCAAEIELFSPDGVGIYWYVYWGQGTQVYVSS', 'high polyreactivity'),
  ('QVQLVESGGCLVQAGGRLRLICAASGRTFFFNAMGWYRQAPGKERELVAAISRGGSRTFYADSVKGRFTISRDNEKNTVYLQMNSLKPEDNAVYYCNDVAQSGRYDYWGQGTQVTVSS', 'high polyreactivity'),
  ('QVQLVESGGGLVQAGGSLRLSCAASGSTFYTYAMGWYRQAPGKERELVATISRGGGRTYYADSVKGRFTISRDNAKNTVYLQMNSLKPEDTAVYYCAARLYSSSYNSEQYYYWGQGTQVTVSS', 'high polyreactivity');

Q: Which polyreactivity (PSR sort gate) is reported for this sequence? QVQLVESGGGLVQAGGSLRLSCAASGFTFGRYAMGWYRQAPGKERELVAAIATRGGSTYYADSVKGRFTISRDNAMNTVYLQMNSLKPEDTAVYYCAAGGYYVRYDYWGQGTQVTVSS
Ans: high polyreactivity

Q: GET /values?readout=polyreactivity (PSR sort gate)&item= QVQLVESGGGVVQAGGSLRLSCAASGFIFTFYAMGWYRQAPGKERELVAAITGRGGRTYYADSVKGRFTISRDNAKNTVYLQMNSLKPEDTAVYYCAARYRYSVTPGYVYWGQGTQVTLSS
Ans: high polyreactivity

Q: What does the data say about its polyreactivity (PSR sort gate)? Entry: QVQLVESGGGLVQAGGSLRLSCDASGRILTSNAMGWYRQPPGKERELVAAISWSGGSTYYADSVKGRFTISRDNAKNTVYLQMNSLKPEDTAVYYCAAPFTTTFDYWGQGTQVTVSS
Ans: low polyreactivity

Q: Please report the recorded polyreactivity (PSR sort gate) for QVHLVESGGGLVQAGGSLRLSGAASGFTFYRYAMGWSRQAPGKERELVAAITSGAITYYADSVKGRFTISRDNAKNTVYLQMNSLKPEETAVYYCNAVYRVAAIVRYDYWGQGTQVTVSS .
Ans: high polyreactivity

Q: Given the entry QVQLVDSGGGLVQAGGSLRLSCAASVITFGYYAMGWYRQAPGKERELVAAISRSGGNTRYADSVKGRFTISRDNAKNTVYLQMNSLKTDDTAVYYCAKRTTYSDDYWGQGTQVTVSS , report its measured polyreactivity (PSR sort gate).
Ans: high polyreactivity

Q: polyreactivity (PSR sort gate) for QVQLVESGGGLVQAGGSLRLSCAASGSTFVQNAMGWYRQAPGNERELVAAISRTGGSTYYADSVKGRFTISRDNAKNTVYLQMNSLKPEDTAVYYCAKRPPNYSWPKIIEFGSWGLGTQVTVSS ?
Ans: high polyreactivity

Q: Consider the sequence shown here: QVQLKESGGGLVQAGGSLRLSCAASGNIVDADIMGWYRQAPGKERELVASITDGGSTNYADSVKGRFTISRDNAKNTVYLQMNSLKPEDTAVYYCAAIAYPDIPTYFDYDSEYFYWGQGTQVTVSS What is its recorded polyreactivity (PSR sort gate)?
Ans: low polyreactivity

Q: Tell me the measured polyreactivity (PSR sort gate) of QVQLVESGGGLVQAGGSLRLSCAASGSTLASYAMGWYSQAPGKERELVAVIDSGGSTYYADSVKGRFTISRDNAKNSVYVQMNSLKPEDTAVYDCAAGWEFSGVLTLFGYWGQGTQVTVSS , please.
Ans: low polyreactivity

Q: Param item = QVHLVESGGGLVQAGGSLRLSCAASGFTFRYYAMGSYRQAPGKERELVASIRRIGGSTYYADSVKGRFTISRDNAKNTVYLQMNSLKPDDTAVYYCAASTNFYYNPEYDSWGQGTQVTVSS ; retrieve measured polyreactivity (PSR sort gate).
Ans: low polyreactivity

Q: Name the recorded polyreactivity (PSR sort gate) for QVQLVESGGGLVQAGGSLLLSCAASGSLFYRYAMGWYRQAPGKERELVAAISWGGGRTYYADSVKGRFTISRDNAKNTVYLQMNRLKPEDTAVYSCNREKYVRWIREDYDYWGQGTQVTVSS .
Ans: high polyreactivity

* * *

experiment: yeast display, Sf9 membrane polyspecificity reagent, FACS + sequencing; frameworks hold sequencing errors
observed.property: polyreactivity (PSR sort gate)

Sample records with polyreactivity (PSR sort gate):
INSERT INTO assay_data (chain, observed_property, recorded_value) VALUES
  ('QVQLVESGGGLVQAGGSLRLSCAASGFNFPVNAMGWYRQAPGTERELVASITRSGGRTYYADSVKGRLTISRDNAKNTVYLQMNSLKPEDTAVYYCAARYLQEYVYEYDYWGQGTQVTVSS', 'polyreactivity (PSR sort gate)', 'high polyreactivity'),
  ('QVQLVESGGGLVQAGGSLRLSCAASGGLFIRYGMGWYRPAPGKERELVAGIDSGGGTNYADSVKGRFTISRDNAKNTVYLQMNSLKPEDTAVYYCARRQGYGFLYGRPYGYWGQGTQVTVSS', 'polyreactivity (PSR sort gate)', 'low polyreactivity'),
  ('QVQLVESGGGLVQAGGSLRLSCAASGIIFGRYAMGWYRHAPGKERELVAAISTSGCSTYYADSVKGRFTISRDNAKTTVYLQMNSLKPEDTAVYYCAARHREAQRRYDYWGQGTQVTVSS', 'polyreactivity (PSR sort gate)', 'high polyreactivity'),
  ('QVQLVESGGGLVQAGGSLRLSCAASGRTFVTNAMGWYRQAPGKERELVAAISSNGGSTYYADSVKGRFTISRDNAKNTVYLQMNSLKPEDTAVYYCNAEGQPLYVSWHDHRYIYGFDYWGQGTQVTVSS', 'polyreactivity (PSR sort gate)', 'low polyreactivity'),
  ('QVQLVESGGGLVQAGGSLLLSCAASGIIFRYNTMGLYRQAPGKERELVAAIRTTGGSTNYADSVKGRFTISRDNAKNTVYLQMNSLKPEDTAVYYCNKGVSSRAFDYWGQGTQVTVSS', 'polyreactivity (PSR sort gate)', 'low polyreactivity'),
  ('QVQLVESGGGLVQAGGSLRLSCAASGSILGTYAMGWYRQAPGKERELVAAISSSGRTSYADSVKGRFTISRDNAKNTVYLQMNSLKPEDTAVYYCNASNYIVLINDPDAAPWLYDYWGQGTQVTVSS', 'polyreactivity (PSR sort gate)', 'low polyreactivity'),
  ('QVQLVESGGGLVQAGGSLRLSCAASGRTYVYTMGWYRQAPGKERELVAAIRYSGGRTYYADSVKGRFTISRDNAMNTVYLQMNSLKPEDTAVYYCAARNYATGVRYDYWGQGTQVTVSS', 'polyreactivity (PSR sort gate)', 'high polyreactivity'),
  ('QVQIVESGGGLVHAGGSLRLSCAASGRIFPDYAMGWYRQAPGKERELVATISYSGGNTNYADSVKGRFTISRDNAKNTVYLQMNSLKPEDTAVYYCNTDWYLPRYVLLGYFSGTEDYWGQGTQVTVSS', 'polyreactivity (PSR sort gate)', 'low polyreactivity'),
  ('QVQLVESGGGLVQAGGSLRLSCAASGRILYLNAMGWYRQAPGKERELVAAITRRAGSTRYADSVKGRFTISRDKAKNTVYLQMNSLKPEDTAVYYCAVAYYRNRMDYWGQGTQVTVSS', 'polyreactivity (PSR sort gate)', 'high polyreactivity'),
  ('QVQLVESGGGLVQAGGSLRLSCAASGFTFGSNAMGWYRQAPGKERELVAAISWSGGRTYYADSVKGRFTISRDNAKNTVYLQMNILKPEDTAVFYCNKQYVKPWYRGYYYWGQGTQVTVSS', 'polyreactivity (PSR sort gate)', 'high polyreactivity');

// moving on: another record for polyreactivity (PSR sort gate)
Q: Suppose we examine the sequence QVQLVESGGGLVQAGGSLRLICAASGRIFGLYAMGWYRQAPGKERELVAGITYSGGTTYYADSVKGRFPISRDNAKNTVYLQMNSLKPEDTAVYYCNKRWYYQYGQSHVRLYDYWGQGTQVTVSS ; what polyreactivity (PSR sort gate) value has been reported?
Ans: high polyreactivity
